# Target Entity: mouse melanocortin 4 receptor (mouse, UniProt P56450 1-332)
# Sequence (P56450 whole entry): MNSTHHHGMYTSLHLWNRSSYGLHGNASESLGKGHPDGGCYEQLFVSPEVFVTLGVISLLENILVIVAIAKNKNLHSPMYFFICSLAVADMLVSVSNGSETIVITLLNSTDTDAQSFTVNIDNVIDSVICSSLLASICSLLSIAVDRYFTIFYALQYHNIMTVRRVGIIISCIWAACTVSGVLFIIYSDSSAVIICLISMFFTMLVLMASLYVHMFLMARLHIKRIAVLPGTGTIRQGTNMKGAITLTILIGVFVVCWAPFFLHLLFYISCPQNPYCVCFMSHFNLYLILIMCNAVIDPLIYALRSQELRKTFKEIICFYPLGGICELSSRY
# Protocol: radioligand binding
Square brackets hold non-standard residues; d marks the D form. Dap = NC[C@H](N)C(=O)O

Binder | Units Label | IC50
cyclo(PCFF[Dap]AF[dP]) [c[Pro-Cys-Phe-Phe-Dap-Ala-Phe-DPro]] | nM | 10000
cyclo(PRYFNAF[dP]) [c[Pro-Arg-Tyr-Phe-Asn-Ala-Phe-DPro]] | nM | 2000
cyclo(PRFFNVF[dP]) [c[Pro-Arg-Phe-Phe-Asn-Val-Phe-DPro]] | nM | 38
cyclo(PRYF[Dap]AF[dP]) [c[Pro-Arg-Tyr-Phe-Dap-Ala-Phe-DPro]] | nM | 134
cyclo(PHFFNAF[dP]) [c[Pro-His-Phe-Phe-Asn-Ala-Phe-DPro]] | nM | 6700
cyclo(PHFF[Dap]AF[dP]) [c[Pro-His-Phe-Phe-Dap-Ala-Phe-DPro]] | nM | 1000
cyclo(PCFFNAF[dP]) [c[Pro-Cys-Phe-Phe-Asn-Ala-Phe-DPro]] | nM | 1900
